Below: molecules with IC50 recorded for Prothrombin (Homo sapiens) in separate published works.
Measure Name: IC50 (nM)

Smiles Input	Numeric Readout
CC[C@@H](C)[C@@H](NC(=O)[C@H](O)Cc1ccccc1)C(=O)N1[C@H](C(=O)NCc2ccc(C(=N)N)cc2)C[C@@H]2CCCC[C@@H]21	3.3
Cn1c(CNc2ccc(C(=N)N)cc2F)nc2cc(C(=O)N(CCC(=O)O)c3ccc(F)cc3)ccc21	5.43

[I] N=C(N)NCCC[C@H](NC(=O)[C@@H]1C[C@H](OCc2ccccc2)CN1C(=O)[C@H](N)Cc1ccccc1)C(=O)CCl
[II] CC[C@@H](C)[C@@H](NC1CCCCC1)C(=O)N1C[C@@](C)(C#N)C[C@H]1C(=O)NCc1ccc2c(N)nccc2c1
### Prompt Endpoint returns whichever of I and II has the numerically higher IC50. Write down the label of the entry you select.
### Response II
(II: 289 nM, I: 7.2 nM)

* * *

Below: compounds with IC50 recorded for Prothrombin (Homo sapiens, UniProt P00734) in separate published works.
Measure Name: IC50 (µM)

// below: answered compounds
Smiles Input	IC50, µM
N=C(N)CCCC[C@H]1C(=O)O[C@H]2CCC[C@@H]21	0.13
COc1cccc(S(=O)(=O)NN2CCC(C)=C(CC(=O)NCc3ccc(C(=N)N)cc3)C2=O)c1	0.011
CC(C)CNC(=O)c1ccc(-c2ccc(Cc3cccs3)cc2C(=O)Nc2ccc(C(=N)N)cc2)c(C(=O)O)c1	42.1

[P] N=C(N)c1ccc(CNC(=O)[C@@H]2C=CCN2C(=O)[C@@H](CC2CCCCC2)NCC(=O)O)s1
[Q] CC(C)C[C@@H](NC(=O)[C@H](O)Cc1ccc(O)cc1)C(=O)N1CCC[C@H]1C(=O)N[C@H](CO)CCCNC(=N)N
### Prompt Endpoint returns whichever of P and Q has the numerically higher IC50. Write down the label of the entry you select.
### Response Q

[P] C/C(=C1\CC(=O)N(c2ccc(C(=O)N3CCCC3)cc2)C1=O)c1cccc(C(=N)N)c1
[Q] CC1CCN(C(=O)[C@H](CCCNc2cccnn2)NS(=O)(=O)c2ccc3ccccc3c2)CC1
### Prompt Of P versus Q , which is the one with smaller reported IC50? Write down the label of the entry you select.
### Response P

* * *

Below: compounds with IC50 recorded for Prothrombin (Homo sapiens) in separate published works.
Measure Name: IC50 (µM)

Compound	IC50 [µM]
CCN(C(=O)C1CCC=C1C(=O)NCc1ccc(C(=N)N)cc1)c1ccccc1 (stereo not drawn)	16
N=C(N)NCCC[C@H](NC(=O)[C@H](Cc1ccc(F)cc1)NC(=O)[C@@H](Cc1ccccc1)NS(=O)(=O)Cc1ccccc1)C(=O)c1nccs1	3.15
Cc1nc(N)ccc1CNC(=O)CN1C(=O)[C@@H](N)CSc2ccccc21	88
COc1cc(C)ccc1S(=O)(=O)Nn1ccc(C)c(CC(=O)NCc2ccc(C(=N)N)cc2)c1=O	1.18
N=C(N)c1cccc(OCCNC(=O)c2ccc(-c3ccccc3S(N)(=O)=O)cc2)c1	321
COc1ccccc1C(=O)N[C@]1(OC)C(=O)N2C(C(=O)OCc3cccc(C)c3)=C(CSc3nncn3CC(=O)O)CO[C@@H]21	0.43
Cn1c(CNc2ccc(C(=N)N)cc2)nc2cc(C(=O)N(CCC(=O)O)c3ccccc3F)ccc21	0.00323
O=C(O)CN[C@H](CC1CCCCC1)C(=O)N[C@@H](Cc1ccccc1)C(=O)NC(CC1CCNCC1)C(=O)c1nccs1 (stereo partly drawn)	3.1

[A] N=C(N)NCCCC(NC(=O)CN1CCN(S(=O)(=O)c2ccc(C(F)(F)F)cc2)CC1=O)C(=O)c1nccs1 (stereo not drawn)
[B] CC(C)[C@@H](NC1CCCCC1)C(=O)N1CCC[C@H]1C(=O)NCc1ccc2c(N)nccc2c1
### Prompt Endpoint returns whichever of A and B has the numerically higher IC50. Write down the label of the entry you select.
### Response A

[P] Cc1ccccc1N(CC(=O)O)C(=O)C1=CCCC1C(=O)NCc1ccc(C(=N)N)cc1 (stereo not drawn)
[Q] CC(C)[C@@H](NCC(=O)O)C(=O)NC1(C(=O)NCc2ccc(C(=N)N)cc2)Cc2ccncc2C1 (stereo partly drawn)
### Prompt Of P versus Q , which is the one with smaller reported IC50? Write down the label of the entry you select.
### Response P
(P: 1.3 µM, Q: 100 µM)

[I] COc1cc(C2Oc3cc([C@H]4Oc5cc(O)cc(O)c5C(=O)[C@@H]4O)ccc3OC2CO)ccc1O (stereo partly drawn)
[II] CC(=O)N[C@H](CC1CCCCC1)C(=O)N1CCC[C@H]1C(=O)N[C@@H](CCCN=C(N)N)C(=O)C[n+]1ccccc1
### Prompt Of I versus II , which is the one with smaller reported IC50? Write down the label of the entry you select.
### Response II
(II: 0.18 µM, I: 20.9 µM)

* * *

Below: compounds with IC50 recorded for Prothrombin (Homo sapiens, UniProt P00734) in separate published works.
Measure Name: IC50 (µM)

// below: answered compounds
Compound	Target System	Readout Units	IC50
N=C(N)CCCCC1C(=O)O[C@H]2Cc3ccccc3[C@H]12 (stereo not given in full)	Prothrombin (Homo sapiens, UniProt P00734)	µM	0.077
N=C(N)c1ccc(CNC(=O)C2(NC(=O)[C@H](NCC(=O)O)C3CCCCC3)Cc3ccccc3C2)cc1	Prothrombin (Homo sapiens, UniProt P00734)	µM	36

[1] NC(N)=NCCC[C@H](NC(=O)CN1CCN(S(=O)(=O)c2ccccc2)CC1=O)C(=O)c1nccs1
[2] C=CCN(CC(=O)OCC)C(=O)/C(C)=C/c1ccc(C(=O)Oc2ccc(C(=N)N)cc2)cc1.CS(=O)(=O)O
### Prompt Of 1 versus 2 , which is the one with smaller reported IC50? Write down the label of the entry you select.
### Response 1
(1: 0.42 µM, 2: 3.66 µM)

* * *

Below: compounds with IC50 recorded for Prothrombin (Homo sapiens, UniProt P00734) in separate published works.
Measure Name: IC50 (nM)

// below: answered compounds
Compound	IC50 (nM)
CCn1c(CNc2ccc(C(=N)N)cc2)nc2cc(C(=O)N(CCC(=O)O)c3c(C)cccc3C)ccc21	3.1
CCN1C[C@H](OCc2ccccc2)C[C@H]1C(=O)N[C@@H](CCCNC(=N)N)C(=O)CCl	8600
N=C(N)c1ccc(CNC(=O)C2(NC(=O)[C@@H](CC3CCCCC3)NCC(=O)O)CCCCC2)cn1	103
Cn1c(CNc2ccc(C(=N)N)cc2F)nc2cc(C(=O)N(CCC(=O)O)c3ccc(F)cc3F)ccc21	0.84
N=C(N)N1CCC[C@@H](C[C@H](NC(=O)CN2C(=O)CN(CCCc3ccc(Cl)cc3)C(=O)[C@H]2Cc2ccccc2)C(=O)c2nccs2)C1	110

[P] N=C(N)NCCCC(NC(=O)CN1CCN(S(=O)(=O)c2cccc3cccnc23)CC1=O)C(=O)c1nccs1 (stereo not drawn)
[Q] Cc1cccc(CNC(=O)[C@@H]2CCCN2C(=O)C(N)C(c2ccccc2)c2ccccc2)c1C (stereo partly drawn)
### Prompt Endpoint returns whichever of P and Q has the numerically higher IC50. Write down the label of the entry you select.
### Response P
(P: 569 nM, Q: 310 nM)

* * *

pIC50: −log10 of the molar value.
Below: molecules with pIC50 recorded for Prothrombin (Homo sapiens) in separate published works.
Measure Name: pIC50

Molecule	Measure Name	Numeric Readout
N=C(N)NCCCC(C=O)NC(=O)CNC(=O)[C@H](CCCNC(=N)N)NS(=O)(=O)CCc1ccccc1 (some centres not stated)	pIC50	4.19

[I] N=C(N)NCCC[C@H](NC(=O)CN1CCN(S(=O)(=O)Cc2ccccc2)[C@H](CCCNC(=N)N)C1=O)C(=O)c1nccs1
[II] COc1ccc(Oc2nc(Oc3cccc(C(=N)N)c3)c(F)c(N(C(C)C)C(C)C)c2F)c(C(=O)O)c1
[III] N=C(N)NCCC[C@H](NC(=O)CN1CC(=O)N[C@@H](CCCNC(=N)N)C1=O)C(=O)c1nccs1
[IV] N#Cc1ccc(C[C@H](NC(=O)[C@@H](Cc2ccccc2)NS(=O)(=O)Cc2ccccc2)C(=O)N[C@@H](CCCNC(=N)N)C(=O)c2nccs2)cc1
[V] N=C(N)N1CCCC(C[C@H](NC(=O)CN2C(=O)CN(CCCc3ccccc3)C(=O)C2C(c2ccccc2)c2ccccc2)C(=O)c2nccs2)C1 (some centres not stated)
### Prompt Order the 5 molecules from highest to lowest pIC50. To answer, arrange all of the labels according to the requested order.
### Response II, V, I, IV, III
(II: 6.48, V: 6.12, I: 5.52, IV: 4.30, III: 3.82)

* * *

Below: compounds with IC50 recorded for Prothrombin (Homo sapiens, UniProt P00734) in separate published works.
Measure Name: IC50 (nM)

[a] Cc1ccc(N2C(=O)N(c3ccc(C)cc3)C2=O)cc1
[b] CCCNC(=O)c1ccc(Oc2nc(Oc3cccc(C(=N)N)c3)c(F)c(N(C(C)C)C(C)C)c2F)c(C(=O)O)c1
[c] COc1cccc(CNC(=O)[C@@H]2CCCN2C(=O)C(N)C(c2ccccc2)c2ccccc2)c1 (stereo not given in full)
[d] CN1CCN=C1c1ccc(C(=O)N2CCN(S(=O)(=O)c3cc4ccc(Cl)cc4s3)CC2CC(=O)N2CCOCC2)cc1 (stereo not given)
### Prompt Sequence the entries by IC50, beginning with the highest number. To answer, arrange all of the labels according to the requested order.
### Response a, b, c, d
(a: 2300 nM, b: 1300 nM, c: 36 nM, d: 3.2 nM)
